biological target: OR10A6(A117V, V140G, L287P) (Homo sapiens, UniProt Q8NH74, A117V/L287P/V140G); construct: expressed in transfected cells; transient transfection of pcDNA3.1(+) OR plasmid; assay: Dose-response test of single lactones on OR10A6(A117V, V140G, L287P); type: cell-based
Sequence (Q8NH74 with tags, fused parts or gaps A117V/V140G/L287P limits assumed): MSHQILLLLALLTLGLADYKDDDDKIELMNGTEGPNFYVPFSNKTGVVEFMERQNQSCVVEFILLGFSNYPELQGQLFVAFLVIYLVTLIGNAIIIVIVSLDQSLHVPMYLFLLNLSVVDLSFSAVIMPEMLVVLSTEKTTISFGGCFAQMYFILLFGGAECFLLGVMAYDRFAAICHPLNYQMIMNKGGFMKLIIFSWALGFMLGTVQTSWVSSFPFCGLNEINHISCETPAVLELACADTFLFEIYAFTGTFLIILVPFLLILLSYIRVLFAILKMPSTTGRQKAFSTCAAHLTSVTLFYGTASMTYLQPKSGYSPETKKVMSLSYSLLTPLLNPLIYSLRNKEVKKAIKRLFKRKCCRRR
// EC2 (concentration for 2-fold luciferase induction) lookup, one value per entry
Note: unit µM is implicit; provide only the numeric part.

Example cases with answers are listed next.
compound | observed_value
CCCCCC1CCCC(=O)O1 (stereo not shown) | 5.31
CC1=CCC(C(C)CC2CCCC2=O)CC1 (stereo not shown) | 1.12
CCCCCCCC1CCC(=O)O1 (stereo not shown) | 0.34

So what does the record say about EC2 (concentration for 2-fold luciferase induction) for CCCCCCC1CCC(=O)O1 (stereo not shown) ?
1.62

Reported EC2 (concentration for 2-fold luciferase induction) for CCCCCCCC1CCCC(=O)O1 (stereo not shown) : what is it?
1.11

What value of measured EC2 (concentration for 2-fold luciferase induction) is listed for CCCCCCCCC1CCC(=O)O1 (stereo not shown) ?
0.48

Bench note: what EC2 (concentration for 2-fold luciferase induction) did CCCCCC1CCC(=O)O1 (stereo not shown) show?
11.34
